- Assayed system: Complement factor D (Homo sapiens)
- Sequence (P00746 whole entry): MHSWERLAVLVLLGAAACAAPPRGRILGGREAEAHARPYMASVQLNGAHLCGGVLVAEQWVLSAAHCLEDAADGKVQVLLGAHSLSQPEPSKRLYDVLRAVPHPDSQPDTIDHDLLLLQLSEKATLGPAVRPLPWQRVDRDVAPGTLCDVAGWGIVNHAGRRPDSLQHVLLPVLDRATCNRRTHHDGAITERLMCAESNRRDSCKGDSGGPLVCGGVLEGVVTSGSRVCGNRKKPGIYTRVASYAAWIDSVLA
- Assay info: Inhibition of recombinant human factor D expressed in Escherichia coli using Z-Lys-thiobenzyl and 2,4-dinitrobenzenesulfonyl-fluoresceine as substrate preincubated for 1 hr followed by substrate addition by spectrofluorimetric analysis
Measure: IC50 (nM)
The figure you give is taken to be in nM; do not add the unit.

IC50 recorded for this molecule, `NC(=O)c1nn(CC(=O)N2[C@@H]3C[C@@H]3C[C@H]2C(=O)Nc2cccc(Br)n2)c2cnc(CF)cc12` , is 2
